MEASURED_ON: TbINO1 (Trypanosoma brucei brucei)
Sequence (Q5QQ46 whole entry): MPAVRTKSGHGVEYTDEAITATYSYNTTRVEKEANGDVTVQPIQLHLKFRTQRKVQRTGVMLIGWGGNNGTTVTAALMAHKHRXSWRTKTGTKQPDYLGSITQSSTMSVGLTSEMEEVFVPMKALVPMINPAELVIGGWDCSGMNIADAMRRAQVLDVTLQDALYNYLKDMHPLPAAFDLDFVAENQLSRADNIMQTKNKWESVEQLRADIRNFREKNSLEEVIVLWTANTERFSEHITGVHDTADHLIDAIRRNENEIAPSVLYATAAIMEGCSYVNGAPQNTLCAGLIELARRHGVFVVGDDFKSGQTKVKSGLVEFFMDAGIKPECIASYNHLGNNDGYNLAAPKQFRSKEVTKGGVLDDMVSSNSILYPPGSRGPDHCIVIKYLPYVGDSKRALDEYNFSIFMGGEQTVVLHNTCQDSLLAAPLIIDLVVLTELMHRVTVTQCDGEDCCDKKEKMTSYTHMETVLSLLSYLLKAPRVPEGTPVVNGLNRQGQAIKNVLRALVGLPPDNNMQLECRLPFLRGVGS
ASSAY_REMARKS: biochemical
Type: binding
SETUP_CONDITIONS: read-out: Tb Ino1 Tm Shift [˚C]
YES means recorded ΔTm at 1000 µM is 0.2 °C or above; NO means it is below 0.2 °C.

Consider the following illustrative entries.
MOLECULE | CATEGORY
NCc1ccoc1 | YES
Cc1cccc(C(N)=O)c1C [compound 176, 2,3‐dimethylbenzamide] | NO
N#CCc1ccccn1 | YES
NC(=S)N1CCOCC1 [compound 159, morpholine‐4‐carbothioamide] | YES
Cc1nc(C)c(CO)s1 | NO

// next entry
stdin: Quick check, ΔTm at 1000 µM >= 0.2 °C? "Cn1c(CN)nc2ccccc21"
stdout: YES
